- assay_details: Evaluation of composition stability of PSE and fish oil mixtures with test reagents
- Type: physicochemical
- condition_set: Phytosterol 4 g, fish oil 2 g, test reagent 0.10 g
observation_type: Stability results

structure_notation: OCC(O)CO
observation_type: Stability results
measurement: insoluble

structure_notation: O=C(O)CC(O)(CC(=O)O)C(=O)O
observation_type: Stability results
measurement: insoluble

###

- assay_details: Evaluation of composition stability of PSE and fish oil mixtures with test reagents
- Format: physicochemical
- condition_set: Phytosterol 4 g, fish oil 2 g, test reagent 0.30 g
Counter-ions that a name gives are not always drawn.
observation_type: Stability results

molecule: O=C(O)CC(O)(CC(=O)O)C(=O)O
observation_type: Stability results
measurement: insoluble

molecule: CCOC(=O)/C=C\C(=O)OCC [Diethyl Maleate]
observation_type: Stability results
measurement: insoluble
